target.system: HCV NS3-4A serine protease (full-length NS3-4A protein) (Hepatitis C virus genotype 1a (isolate 1) (HCV), UniProt P26664)
Sequence (P26664 1027-1657): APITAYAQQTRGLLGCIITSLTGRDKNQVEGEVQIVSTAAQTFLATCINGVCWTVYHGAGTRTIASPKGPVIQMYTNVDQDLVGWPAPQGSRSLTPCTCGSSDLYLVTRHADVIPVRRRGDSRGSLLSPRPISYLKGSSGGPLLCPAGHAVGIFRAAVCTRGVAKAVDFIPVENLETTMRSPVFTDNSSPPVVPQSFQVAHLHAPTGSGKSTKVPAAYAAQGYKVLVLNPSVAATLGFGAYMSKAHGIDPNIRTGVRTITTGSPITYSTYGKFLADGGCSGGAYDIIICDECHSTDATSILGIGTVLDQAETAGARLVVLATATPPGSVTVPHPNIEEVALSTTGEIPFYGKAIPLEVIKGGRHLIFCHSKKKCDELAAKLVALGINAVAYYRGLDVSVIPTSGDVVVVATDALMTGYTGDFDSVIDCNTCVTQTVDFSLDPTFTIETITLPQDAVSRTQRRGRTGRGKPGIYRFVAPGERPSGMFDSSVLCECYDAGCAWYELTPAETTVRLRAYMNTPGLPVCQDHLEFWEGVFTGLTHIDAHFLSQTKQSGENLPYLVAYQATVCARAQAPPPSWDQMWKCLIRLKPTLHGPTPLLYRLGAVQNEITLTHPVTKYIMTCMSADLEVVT
Sequence (P26664 1658-1711 partner): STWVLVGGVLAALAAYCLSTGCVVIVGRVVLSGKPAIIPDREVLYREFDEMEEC
procedure.details: HCV NS3-4A protease assay
condition.context: strain HCV-1, fluorogenic peptide substrate, read-out: Protease assay Ex. 12 IC50
pIC50: −log10 of the molar value.
Please enter T where pIC50 is greater than or equal to 8, and F where it is lower.

C=C[C@@H]1C[C@]1(NC(=O)[C@@H]1C[C@@]2(CN1C(=O)[C@@H](NC(=O)[C@@H](NC(=O)[C@@H]1CCCCN1C1CCCC1)C1CCCCC1)C(C)(C)C)C(C)(C)C21CCC1)C(=O)NS(=O)(=O)N1CCCC1	T
C=C[C@@H]1C[C@]1(NC(=O)[C@@H]1C[C@@]2(CN1C(=O)[C@@H](NC(=O)[C@@H](NC(=O)C(C)(C)N1CCCC1)C(C)(C)C)C(C)(C)C)C(C)(C)C21CCC1)C(=O)NS(=O)(=O)N1CCCC1	F
C=C[C@@H]1C[C@]1(NC(=O)[C@@H]1C[C@@]2(CN1C(=O)[C@@H](NC(=O)[C@@H](NC(=O)[C@@H]1CCCCN1C(C)C)C1(C)CCCCC1)C(C)(C)C)C(C)(C)C21CCC1)C(=O)NS(=O)(=O)N1CCCC1	T
C=C[C@@H]1C[C@]1(NC(=O)[C@@H]1C[C@@]2(CN1C(=O)[C@@H](NC(=O)[C@@H](NC(=O)[C@@H]1CCCCN1CCF)C(C)(C)C)C(C)(C)C)C(C)(C)C21CCC1)C(=O)NS(=O)(=O)N1CCCC1	F
C=C[C@@H]1C[C@]1(NC(=O)[C@@H]1C[C@@]2(CN1C(=O)[C@@H](NC(=O)[C@@H](NC(=O)[C@H]1CCCCN1C(C)C)C1CCCCC1)C(C)(C)C)C(C)(C)C21CCC1)C(=O)NS(=O)(=O)N(C)CC	T
C=C[C@@H]1C[C@]1(NC(=O)[C@@H]1C[C@@]2(CN1C(=O)[C@@H](NC(=O)[C@@H](NC(=O)[C@@H]1CCCCN1C(C)C)C1CCCCC1)C(C)(C)C)C(C)(C)C21CCC1)C(=O)NS(=O)(=O)N1CCCCC1	T

# input Can C=C[C@@H]1C[C@]1(NC(=O)C1C[C@@]2(CN1C(=O)[C@@H](NC(=O)c1cccc(C(=O)NCCC)c1)C(C)(C)C)C(C)(C)C21CCC1)C(=O)NS(=O)(=O)N1CCCC1 (stereo partly shown) be said to have pIC50 at or above 8?
# output F
